The origin of these recorded values is patent US20140296146A1.

Target: T1, h-FXIIa (human, UniProt P00748 20-615)
T1 construct: also called factor XIIa
T1 sequence (looked up): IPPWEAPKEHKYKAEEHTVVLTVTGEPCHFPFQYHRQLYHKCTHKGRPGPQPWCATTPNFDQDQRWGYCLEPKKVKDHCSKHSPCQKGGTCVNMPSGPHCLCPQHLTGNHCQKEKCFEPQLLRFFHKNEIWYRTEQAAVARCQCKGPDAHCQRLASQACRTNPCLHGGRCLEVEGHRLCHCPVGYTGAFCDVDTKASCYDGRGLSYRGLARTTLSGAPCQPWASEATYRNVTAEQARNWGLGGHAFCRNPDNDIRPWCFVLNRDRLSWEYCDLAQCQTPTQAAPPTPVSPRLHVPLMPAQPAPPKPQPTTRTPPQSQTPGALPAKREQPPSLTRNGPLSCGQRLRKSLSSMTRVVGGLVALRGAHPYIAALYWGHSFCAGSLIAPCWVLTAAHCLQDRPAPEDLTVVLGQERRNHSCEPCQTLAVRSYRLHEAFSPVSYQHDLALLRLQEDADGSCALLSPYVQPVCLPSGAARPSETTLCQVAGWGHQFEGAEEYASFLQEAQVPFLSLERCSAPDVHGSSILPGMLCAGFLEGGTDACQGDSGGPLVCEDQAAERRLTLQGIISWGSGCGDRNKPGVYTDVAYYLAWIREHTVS
Test: S2302 hydrolysis by h-FXIIa (5 nM), fit of residual activity; dissociation constant of the complex
Where no end group is shown, it is not given here.
reported metric: pKi
# pKi = -log10(concentration in molar units)

The examples below pair each entry with its known result.
binder	pKi
Corn trypsin inhibitor (other, UniProt P01088 29-138, looked up, also called CTI) SAGTSCVPGWAIPHNPLPSCRWYVTSRTCGIGPRLPWPELKRRCCRELADIPAYCRCTALSILMDGAIPPGPDAQLEGRLEDLPGCPREVQRGFAATLVTEAECNLATIS	8.54
HEERVCPRILMKCKKDSDCLAECVCLEHGYCG (Synthetic congener; also called HEE-TICA1) [TICA 3]	5.51
RVCPKILMECKKDSDCLAECICLEHGYCG (disulfide (positions not given here), Synthetic congener) [TICA 4]	5.85

Would you mind telling me what pKi value was observed for RVCPRILMECKKDSDCLAECVCLEHGYCG (disulfide (positions not given here), Synthetic, folded peptide) [TICA 2] ?
6.96

Same thing, different binder: HEERVCPKILMECKKDSDCLAECICLEHGYCG (Synthetic congener; also called HEE-TICA4) [TICA 5]
3.77
